pIC50 values for the molecules below.
# SYSTEM UNDER TEST: various mutants of kinase EGFR (BaF3 cell lines stably transfected with kinase) (Homo sapiens, UniProt P00533, T790M/C797S, form not given)
# Construct: other: BaF3 cells stably transfected with EGFR Δ19Del/T790M/C797S; MTS, 48; other: BaF3 cell line stably transfected with EGFR Δ19Del/T790M/C7
# Sequence (P00533 with tags, fused parts or gaps DEL746-750/T790M/C797S, form open): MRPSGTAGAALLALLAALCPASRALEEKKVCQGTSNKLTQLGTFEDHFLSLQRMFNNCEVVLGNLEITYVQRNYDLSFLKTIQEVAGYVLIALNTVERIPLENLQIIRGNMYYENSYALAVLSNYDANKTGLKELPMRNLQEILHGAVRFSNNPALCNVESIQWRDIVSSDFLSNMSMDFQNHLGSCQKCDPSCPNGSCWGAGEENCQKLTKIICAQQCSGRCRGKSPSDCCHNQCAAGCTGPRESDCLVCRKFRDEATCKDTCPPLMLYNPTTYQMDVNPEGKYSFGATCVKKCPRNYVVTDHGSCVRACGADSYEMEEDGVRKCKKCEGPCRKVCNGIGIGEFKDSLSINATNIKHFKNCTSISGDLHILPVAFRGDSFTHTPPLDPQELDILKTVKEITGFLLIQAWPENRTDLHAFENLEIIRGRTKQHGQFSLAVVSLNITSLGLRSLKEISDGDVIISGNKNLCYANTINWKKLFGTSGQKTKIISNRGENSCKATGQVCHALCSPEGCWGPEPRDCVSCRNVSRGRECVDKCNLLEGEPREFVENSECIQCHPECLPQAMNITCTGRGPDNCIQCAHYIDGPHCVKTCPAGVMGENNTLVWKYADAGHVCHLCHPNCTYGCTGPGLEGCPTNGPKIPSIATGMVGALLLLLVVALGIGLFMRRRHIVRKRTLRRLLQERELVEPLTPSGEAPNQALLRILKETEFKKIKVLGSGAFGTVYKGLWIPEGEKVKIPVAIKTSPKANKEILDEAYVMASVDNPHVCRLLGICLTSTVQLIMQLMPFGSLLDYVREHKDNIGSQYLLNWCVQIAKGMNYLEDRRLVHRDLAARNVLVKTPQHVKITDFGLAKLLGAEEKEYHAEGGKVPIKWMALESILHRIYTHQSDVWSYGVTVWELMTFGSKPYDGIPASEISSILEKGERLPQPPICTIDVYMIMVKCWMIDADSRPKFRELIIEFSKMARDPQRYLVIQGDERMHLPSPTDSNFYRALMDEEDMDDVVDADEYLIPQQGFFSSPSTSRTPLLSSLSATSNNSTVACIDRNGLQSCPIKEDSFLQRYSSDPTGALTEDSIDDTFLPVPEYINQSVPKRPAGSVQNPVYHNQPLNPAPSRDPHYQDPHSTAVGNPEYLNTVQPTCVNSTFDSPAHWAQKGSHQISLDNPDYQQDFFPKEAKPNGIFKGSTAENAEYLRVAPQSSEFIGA
# ASSAY NAME: Growth inhibitory activity of compounds on BaF3 cell lines stably transfected with kinase (MTS, 48 h)
# Format: cell-based
# CONDITION INFO: BaF3 cell line stably transfected with EGFR Δ19Del/T790M/C797S, read-out: Δ19Del/T790M/ C797S growth inhibitory activity IC50
pIC50: −log10 of the molar value.

Answered cases to consult:
COc1ccc(N2CCNCC2)cc1Nc1ncc(Br)c(Nc2ccc3nccnc3c2N(C)S(C)(=O)=O)n1 [Compound I-352]	6.30 to 7.30
CCc1cc(Nc2nc(Nc3ccc4nccnc4c3N(C)S(C)(=O)=O)c3occc3n2)c(OC)nc1N1CCC(N2CCN(C)CC2)CC1 [II-1-39]	≥ 7.30
CCc1cc(Nc2nc(Nc3ccc4nccnc4c3N(C)S(C)(=O)=O)c3[nH]ccc3n2)c(OC(F)(F)F)cc1N1CCC(N2CCN(C)CC2)CC1 [II-1-22]	6.30 to 7.30
CCc1cnc(Nc2cc(C)c(N3CCC(N4CCN(C)CC4)CC3)cc2OC)nc1Nc1ccc2nccnc2c1N(C)S(C)(=O)=O [Compound I-317]	≥ 7.30
CCc1cc(Nc2ncc(Br)c(Nc3ccc4nccnc4c3N(C)S(C)(=O)=O)n2)c(OC)cc1NCCN(C)C [Compound I-391]	≥ 7.30
COc1ccc(N2CCC(O)CC2)cc1Nc1ncc(C(F)(F)F)c(Nc2ccc3nccnc3c2N(C)S(C)(=O)=O)n1 [Compound I-369]	≥ 7.30
COc1nc(N2CCC(N3CCN(C)CC3)CC2)ccc1Nc1nc(Nc2ccc3nccnc3c2N(C)S(C)(=O)=O)c2[nH]ccc2n1 [II-1-27]	5.60 to 6.30
CCc1cc(Nc2nc(Nc3ccc4nccnc4c3N(C)S(C)(=O)=O)c3sccc3n2)c(OC)nc1N1CCC(N2CCN(C)CC2)CC1 [II-1-6]	6.30 to 7.30

QUERY: Consider the molecule CCn1ccc(Nc2ncc(Br)c(Nc3ccc4nccnc4c3N(C)S(C)(=O)=O)n2)n1 [Compound I-383] and give its recorded pIC50.
RESULT: 6.30 to 7.30

QUERY: Consider the molecule CN1CCN(C2CCN(c3ccc(Nc4ncc(Br)c(Nc5ccc6nccnc6c5N(C)S(C)(=O)=O)n4)c(F)c3F)CC2)CC1 [Compound I-353] and give its recorded pIC50.
RESULT: ≥ 7.30

QUERY: Quickly give me recorded pIC50 for CN1CCN(C2CCN(c3ccc(Nc4ncc(Cl)c(Nc5ccc6nccnc6c5N(C)S(C)(=O)=O)n4)c(F)c3F)CC2)CC1 [Compound I-356]
RESULT: ≥ 7.30

QUERY: Determine from records and report pIC50 for COc1cc(N2CCC(N3CCN(C)CC3)CC2)c(C(C)C)cc1Nc1ncc(Br)c(Nc2ccc3nccnc3c2NS(C)(=O)=O)n1 [Compound I-406]
RESULT: 6.30 to 7.30

QUERY: Given CCc1cc(Nc2ncc(Br)c(Nc3ccc4nccnc4c3N(C)S(C)(=O)=O)n2)c(OC)cc1C(=O)N1CCC(N2CCN(C)CC2)CC1 [Compound I-355] , respond with its pIC50.
RESULT: ≥ 7.30
